Item-by-item account of IC50
Assay: Metal chelating activity of the compound assessed as formation of iron complex after 20 mins by spectrophotometry
Type: physicochemical
Could you give me the number in µg/mL? Just the number is fine.

# annotated cases, reported IC50 shown
>  <compound>
O=C1NN=C2C=C(c3ccc(Br)cc3)CC(c3cccc([N+](=O)[O-])c3)C12 (stereo not given)

>  <IC50, µg/mL>
106.36

$$$$
>  <compound>
CCOC(=O)C1C(=O)C=C(c2ccc(OC)cc2)CC1c1cccc([N+](=O)[O-])c1 (stereo not given)

>  <IC50, µg/mL>
1028

$$$$
>  <compound>
O=C1ON=C2C=C(c3ccccc3)CC(c3cccc([N+](=O)[O-])c3)C12 (stereo not given)

>  <IC50, µg/mL>
750.45

$$$$
>  <compound>
COc1ccc(C2=CC3=NOC(=O)C3C(c3cccc([N+](=O)[O-])c3)C2)c(OC)c1 (stereo not given)

>  <IC50, µg/mL>
746.04

$$$$

In: Annotate the compound COc1ccc(C(=O)/C=C/c2cccc([N+](=O)[O-])c2)cc1 with its measured IC50.
Out: 97.32

###

Experiment: Metal chelating activity of the compound assessed as formation of iron complex after 20 mins by spectrophotometry
Format: physicochemical
metric: IC50 (µg/mL)
Could you give me the number in µg/mL? Just the number is fine.

In: Annotate the compound O=C(/C=C/c1cccc([N+](=O)[O-])c1)c1ccc(O)cc1 with its measured IC50.
Out: 84.09

In: Annotate the compound CCOC(=O)C1C(=O)C=C(c2cccs2)CC1c1cccc([N+](=O)[O-])c1 (stereo not given) with its measured IC50.
Out: 1030.56

In: Annotate the compound CCOC(=O)C1C(=O)C=C(c2ccccc2)CC1c1cccc([N+](=O)[O-])c1 (stereo not given) with its measured IC50.
Out: 1028.57

In: Annotate the compound O=C1NN=C2C=C(c3ccc(O)cc3)CC(c3cccc([N+](=O)[O-])c3)C12 (stereo not given) with its measured IC50.
Out: 80.91

In: Annotate the compound O=C1NN=C2C=C(c3cccs3)CC(c3cccc([N+](=O)[O-])c3)C12 (stereo not given) with its measured IC50.
Out: 86.96

###

Tested on: Staphylococcus aureus
Assay: Antimicrobial activity against Staphylococcus aureus ATCC 25923 assessed as zone of inhibition at 100 ug/ml by agar well diffusion method
Assay type: functional
Details: read-out: IZ
Outcome: 1 (yes) for zone of inhibition at 100 µg/mL of at least 10 mm; 0 (no) for anything lower.

Solved cases below.
>  <compound>
O=C1ON=C2C=C(c3cccs3)CC(c3cccc([N+](=O)[O-])c3)C12 (stereo unspecified)

>  <cat>
1 (yes)

$$$$
>  <compound>
O=C1NN=C2C=C(c3cccs3)CC(c3cccc([N+](=O)[O-])c3)C12 (stereo unspecified)

>  <cat>
0 (no)

$$$$
>  <compound>
O=C1NN=C2C=C(c3ccccc3)CC(c3cccc([N+](=O)[O-])c3)C12 (stereo unspecified)

>  <cat>
1 (yes)

$$$$

In: Entry O=C1NN=C2C=C(c3ccc(O)cc3)CC(c3cccc([N+](=O)[O-])c3)C12 (stereo unspecified) : is its zone of inhibition at 100 µg/mL no less than 10 mm?
Out: 1 (yes)

In: Entry O=C1NN=C2C=C(c3ccc(Br)cc3)CC(c3cccc([N+](=O)[O-])c3)C12 (stereo unspecified) : is its zone of inhibition at 100 µg/mL no less than 10 mm?
Out: 1 (yes)
